Target: truncated form of human recombinant PTP1B (amino acid 1-322) (Homo sapiens)
Sequence (P18031 1-322): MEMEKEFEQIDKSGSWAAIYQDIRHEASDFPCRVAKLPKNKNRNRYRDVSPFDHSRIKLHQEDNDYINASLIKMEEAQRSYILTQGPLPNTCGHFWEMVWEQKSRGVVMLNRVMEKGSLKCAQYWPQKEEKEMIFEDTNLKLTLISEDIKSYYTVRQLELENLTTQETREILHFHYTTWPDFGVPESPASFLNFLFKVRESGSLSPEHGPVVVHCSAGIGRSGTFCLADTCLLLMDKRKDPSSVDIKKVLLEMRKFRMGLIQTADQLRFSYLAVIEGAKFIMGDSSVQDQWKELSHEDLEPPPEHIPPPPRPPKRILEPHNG
Assay: In vitro PTP1B inhibitory activity assay (pNPP substrate)
Conditions: IC50 PTP1B, mean ± SD of triplicate experiments; pNPP substrate
// values below are reported IC50
Answer with a number only, understood to be in µM.

| molecule | quantitative_readout |
| --- | --- |
| NCCc1ccc(O)cc1 [Compound 21, tyramine] | 188 |

# ---- query molecule ----
Query: IC50; subject: CC(C)C1(CC[C@@H](C)[C@H]2CCC3C4CC=C5C[C@@H](O)CC[C@]5(C)C4CC[C@@]32C)OC1C (mixture of isomers) [Compound 6]
16.7

Values compiled from paper PMC6562952.
